# protocol.description: Mouse PK of G7883, IP in MCT vehicle
# Assay type: in vivo, female NSG mice
# setup.conditions: female, NSG, plasma, ip, 150 mg/kg, IP 150 mpk, MCT vehicle, mean
readout.type: half-life (h)
Quick reminder: number only, in h, skip the unit.

[in] What value of half-life has been recorded for this entry: Cc1nccnc1-c1nn2c(=O)cc(-c3ccc(C4CCCCC4)cc3)[nH]c2c1C(=O)N1CC(CF)C1
[out] 1.5

* * *

# protocol.description: Mouse PK of G7883, PO in MCT vehicle
# Format: in vivo, female CD-1 mice
# setup.conditions: female, CD-1, plasma, PO, 25 to 250 mpk, read-out: plasma half-life (converted)
readout.type: half-life (h)
Quick reminder: number only, in h, skip the unit.

[in] What value of half-life has been recorded for this entry: Cc1nccnc1-c1nn2c(=O)cc(-c3ccc(C4CCCCC4)cc3)[nH]c2c1C(=O)N1CC(CF)C1
[out] 2

* * *

# protocol.description: Mouse PK of G6893, PO in MCT vehicle
# Assay type: in vivo, female C57BL-6 mice
# setup.conditions: female, C57BL-6, plasma, 30 mg/kg; PO 30 mpk, MCT vehicle pH 2.5, mouse, mean ± SD
# Protocol: A total of 0.6% w/v Methylcellulose, 0.2% w/v Tween 80 in water (MCT) was prepared by slowly adding Methylcellulose (Methylocel A15 LV; CAS 9004-67-5, Part ID: 64605-500G-F 27.5-31.5% Methoxyl basis, Sigma-Aldrich, St. Louis, MO, USA) in small portions to prevent clumping while stirring into water at 70–80 °C. […] The pharmacokinetics of G7883 were determined in female CD-1 mice obtained from Charles River Laboratories (Hollister, CA, USA) with a body weight ranging from 20 to 25 g. […]
readout.type: Cmax (µM)
Quick reminder: number only, in µM, skip the unit.

[in] What value of Cmax has been recorded for this entry: Cc1c(-c2cc3cc(NC(=O)O[C@H]4COC[C@@H]4C)ncc3c(N)c2F)cnc2c1NCCO2 (racemic)
[out] 3.8

* * *

# protocol.description: Mouse PK of G7883, PO in MCT vehicle
# Assay type: in vivo, female CD-1 mice
# setup.conditions: female, CD-1, plasma, 25 mg/kg, PO 25 mpk, mean ± SD, read-out: F
readout.type: bioavailability
Value and unit, in that order.

[in] What value of bioavailability has been recorded for this entry: Cc1nccnc1-c1nn2c(=O)cc(-c3ccc(C4CCCCC4)cc3)[nH]c2c1C(=O)N1CC(CF)C1 [G7883]
[out] 6.18%

* * *

# protocol.description: Mouse PK of G7883, IP in MCT vehicle
# Format: in vivo, female NSG mice
# setup.conditions: female, NSG, plasma, ip, 50 mg/kg, IP 50 mpk, MCT vehicle, mean
readout.type: half-life (min)
Quick reminder: number only, in min, skip the unit.

[in] What value of half-life has been recorded for this entry: Cc1nccnc1-c1nn2c(=O)cc(-c3ccc(C4CCCCC4)cc3)[nH]c2c1C(=O)N1CC(CF)C1 [G7883]
[out] 53.7

* * *

# protocol.description: Mouse PK of G7883, SC in sunflower oil
# Assay type: in vivo
# setup.conditions: plasma, sc, 250 mg/kg, SC 250 mpk, sunflower oil suspension, mean ± SD
readout.type: bioavailability (%)
Quick reminder: number only, in %, skip the unit.

[in] What value of bioavailability has been recorded for this entry: Cc1nccnc1-c1nn2c(=O)cc(-c3ccc(C4CCCCC4)cc3)[nH]c2c1C(=O)N1CC(CF)C1
[out] 46

* * *

# protocol.description: Mouse PK of G6893, PO in MCT vehicle
# Assay type: in vivo, female C57BL-6 mice
# setup.conditions: female, C57BL-6, plasma, 30 mg/kg; PO 30 mpk, MCT vehicle pH 2.5, mouse, mean ± SD
readout.type: bioavailability (%)
Quick reminder: number only, in %, skip the unit.

[in] What value of bioavailability has been recorded for this entry: Cc1c(-c2cc3cc(NC(=O)O[C@H]4COC[C@@H]4C)ncc3c(N)c2F)cnc2c1NCCO2 (racemic) [G6893]
[out] 45.5

* * *

# protocol.description: Mouse PK of G7883, PO in MCT vehicle
# Type: in vivo, female CD-1 mice
# setup.conditions: female, CD-1, plasma, 250 mg/kg, PO 250 mpk, mean ± SD, read-out: F
readout.type: bioavailability (%)
Quick reminder: number only, in %, skip the unit.

[in] What value of bioavailability has been recorded for this entry: Cc1nccnc1-c1nn2c(=O)cc(-c3ccc(C4CCCCC4)cc3)[nH]c2c1C(=O)N1CC(CF)C1
[out] 7.8

* * *

# protocol.description: Mouse PK of G6893, PO in MCT vehicle
# Assay type: in vivo, female C57BL-6 mice
# setup.conditions: female, C57BL-6, plasma, 30 mg/kg; PO 30 mpk, MCT vehicle pH 2.5, mouse, mean ± SD
readout.type: Tmax (min)
Quick reminder: number only, in min, skip the unit.

[in] What value of Tmax has been recorded for this entry: Cc1c(-c2cc3cc(NC(=O)O[C@H]4COC[C@@H]4C)ncc3c(N)c2F)cnc2c1NCCO2 (racemic) [G6893]
[out] 40

* * *

# protocol.description: Water solubility (physiochemical properties)
# Assay type: physicochemical
# setup.conditions: water
readout.type: solubility (µg/mL)
Quick reminder: number only, in µg/mL, skip the unit.

[in] What value of solubility has been recorded for this entry: Cc1nccnc1-c1nn2c(=O)cc(-c3ccc(C4CCCCC4)cc3)[nH]c2c1C(=O)N1CC(CF)C1
[out] 85

* * *

Kindly supply the reported Papp values for the records listed here.
# protocol.description: Permeability (physiochemical properties)
# Assay type: in vitro ADME
# setup.conditions: not told
Quick reminder: number only, in ×10⁻⁶ cm/s, skip the unit.

[in] What value of Papp has been recorded for this entry: Cc1c(-c2cc3cc(NC(=O)O[C@H]4COC[C@@H]4C)ncc3c(N)c2F)cnc2c1NCCO2 (racemic)
[out] 15

[in] What value of Papp has been recorded for this entry: Cc1nccnc1-c1nn2c(=O)cc(-c3ccc(C4CCCCC4)cc3)[nH]c2c1C(=O)N1CC(CF)C1
[out] 5.79

* * *

# protocol.description: Mouse PK of G7883, SC in sunflower oil
# Format: in vivo
# setup.conditions: plasma, 250 mg/kg, SC 250 mpk, sunflower oil suspension, mean ± SD
# Description: was screened in different oil vehicles including corn, coconut, paraffin, soybean, and sunflower oil. […] For subcutaneous administrations, […] was formulated in sunflower oil as a suspension and dosed at 250 mg/kg with a dosing volume of 5 mL/kg. Food and water were available ad libitum to animals. […] The lower limit of quantitation of the assay was 5.1 ng/mL, and the dilution quality control concentration was set at 10 ng/mL with acceptance criteria for accuracy and precision of 25%. […]
readout.type: AUC(0-t) (µM·h)
Quick reminder: number only, in µM·h, skip the unit.

[in] What value of AUC(0-t) has been recorded for this entry: Cc1nccnc1-c1nn2c(=O)cc(-c3ccc(C4CCCCC4)cc3)[nH]c2c1C(=O)N1CC(CF)C1
[out] 137

* * *

# protocol.description: pKa (physiochemical properties)
# Format: physicochemical
readout.type: pKa
Respond numerically, and do not add a unit to the figure.

[in] What value of pKa has been recorded for this entry: Cc1nccnc1-c1nn2c(=O)cc(-c3ccc(C4CCCCC4)cc3)[nH]c2c1C(=O)N1CC(CF)C1
[out] 5.51

[in] What value of pKa has been recorded for this entry: Cc1c(-c2cc3cc(NC(=O)O[C@H]4COC[C@@H]4C)ncc3c(N)c2F)cnc2c1NCCO2 (racemic)
[out] 2.53

* * *

# protocol.description: Mouse PK of G7883, PO in MCT vehicle
# Assay type: in vivo, female CD-1 mice
# setup.conditions: female, CD-1, plasma, 25 mg/kg, PO 25 mpk, mean ± SD, read-out: t1/2 (converted)
# Experimental: A total of 0.6% w/v Methylcellulose, 0.2% w/v Tween 80 in water (MCT) was prepared by slowly adding Methylcellulose (Methylocel A15 LV; CAS 9004-67-5, Part ID: 64605-500G-F 27.5-31.5% Methoxyl basis, Sigma-Aldrich, St. Louis, MO, USA) in small portions to prevent clumping while stirring into water at 70–80 °C. […] The pharmacokinetics of G7883 were determined in female CD-1 mice obtained from Charles River Laboratories (Hollister, CA, USA) with a body weight ranging from 20 to 25 g. […]
readout.type: half-life

[in] What value of half-life has been recorded for this entry: Cc1nccnc1-c1nn2c(=O)cc(-c3ccc(C4CCCCC4)cc3)[nH]c2c1C(=O)N1CC(CF)C1
[out] 130 min

* * *

# protocol.description: Mouse PK of G7883, SC in sunflower oil
# Type: in vivo
# setup.conditions: plasma, 250 mg/kg, SC 250 mpk, sunflower oil suspension, mean ± SD
readout.type: half-life (h)
Quick reminder: number only, in h, skip the unit.

[in] What value of half-life has been recorded for this entry: Cc1nccnc1-c1nn2c(=O)cc(-c3ccc(C4CCCCC4)cc3)[nH]c2c1C(=O)N1CC(CF)C1 [G7883]
[out] 6.94
